test system: CD11b; test: Human whole blood CD11b up-regulation assay; assay type: cell-based; conditions: Homo sapiens, 2 nM human C5a, CD15+ granulocytes, read-out: hCD11b IC50
For each record, write down the corresponding IC50.
Answers are plain numbers, in nM.

Worked cases, answers included:
Compound	Uom	IC50
CO[C@@H]1CCN(c2nc(-c3cccc4[nH]cc(C)c34)nc3c2CN(c2cc(Cl)ccc2C)CC3)CC1(C)C	nM	40
Cc1ccc(C(C)C)cc1N1CCc2nc(-c3c(C)ccc4[nH]ncc34)cc(C)c2C1	nM	153
CO[C@H]1CCN(c2nc(-c3c(C(C)C)ccc4[nH]ncc34)nc3c2CN(c2cc(C4(C)COC4)ccc2C)CC3)CC1(C)C	nM	50
Cc1ccc(C(C)C)cc1N1CCc2nc(-c3c(C)ccc4[nH]nc(C)c34)nc(N3CCOC[C@H]3C)c2C1	nM	26

Give measured IC50 for every item shown.
1. Cc1ccccc1N1CCc2nc(-c3c(C)cccc3C)nc(N(C)C)c2C1
2. COc1nc(-c2c(C)ccc3[nH]nc(C)c23)nc2c1CN(c1cc(C(C)C)ccc1C)CC2

Ans:
[451, 18]
